Consider the following binders; for each one, report its SPR respons at 25 uM.
Target: Recombinant Cx43CT (carboxyl terminal domain of connexin43, sequence 255-382 of rCx43 preceded by GPLG) (rat, UniProt P08050)
Sequence (P08050 other isoform, or with tags, fused parts or gaps limits assumed): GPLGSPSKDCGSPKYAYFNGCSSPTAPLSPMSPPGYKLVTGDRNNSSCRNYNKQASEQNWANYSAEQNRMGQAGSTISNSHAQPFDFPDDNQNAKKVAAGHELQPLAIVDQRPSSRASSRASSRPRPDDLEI
Assay: SPR, Cx43CT immobilised, peptide at 25 uM
Numbers only; they are read as arbitrary units.

Inquiry: What value of SPR respons at 25 uM has been recorded for this entry: Ac-RRNYSHSRRNY-NH2 [Compound 2507]
Reply text: 42.3

Inquiry: What value of SPR respons at 25 uM has been recorded for this entry: Ac-RRNYGGGSAVPFYRRNY-NH2 [Compound 2508]
Reply text: 31.1

Inquiry: What value of SPR respons at 25 uM has been recorded for this entry: Ac-RRNYGGSAVPFYSHRRNY-NH2 [Compound 2510]
Reply text: 40.3

Inquiry: What value of SPR respons at 25 uM has been recorded for this entry: Ac-YNRRGGGSAVPFYSHSYNRR-NH2 [Compound 2496]
Reply text: 67.7

Inquiry: What value of SPR respons at 25 uM has been recorded for this entry: Ac-RRNYAVPFRRNY-NH2 [Compound 2511]
Reply text: 16.2

Inquiry: What value of SPR respons at 25 uM has been recorded for this entry: Ac-RRNYRRNY-NH2 [Compound 2497]
Reply text: 30.2

Inquiry: What value of SPR respons at 25 uM has been recorded for this entry: Ac-RRNYVPRRNY-NH2 [Compound 2512]
Reply text: 14.8

Inquiry: What value of SPR respons at 25 uM has been recorded for this entry: Ac-RRNYSAVPFYSHSRRNY-NH2 [Compound 2506]
Reply text: 51.7

Inquiry: What value of SPR respons at 25 uM has been recorded for this entry: Ac-RRNYGGGRRNY-NH2 [Compound 2509]
Reply text: 21.5
